Reported pIC50 values for the following compounds.
target: Phosphatidylinositol 4,5-bisphosphate 3-kinase catalytic subunit alpha isoform (Homo sapiens); test: Inhibition of recombinant human full length N-terminal GST-tagged PI3Kalpha (1 to 1068 residues)/PIK3R1 (1 to 724 residues) expressed in baculovirus expression system using PIP2 as substrate incubated for 1 hr by ADP-Glo assay
Please treat pIC50 as minus the base-10 logarithm of the molar concentration.

Value lookup for pIC50; key = `COc1ccc(N2C(=O)COc3ccc(-c4cnc(Cl)c(NS(=O)(=O)c5ccc(F)cc5)c4)cc32)cc1`
9.37

Further cases:
Value lookup for pIC50; key = `O=C1COc2ccc(-c3cnc(Cl)c(NS(=O)(=O)c4ccc(F)cc4)c3)cc2N1C1CC1`
7.07

Value lookup for pIC50; key = `CC(C)N1C(=O)COc2ccc(-c3cnc(Cl)c(NS(=O)(=O)c4ccc(F)cc4)c3)cc21`
7.81

Value lookup for pIC50; key = `O=C1COc2ccc(-c3cnc(Cl)c(NS(=O)(=O)c4ccc(F)cc4)c3)cc2N1C1CCCCC1`
6.95

Value lookup for pIC50; key = `O=C1COc2ccc(-c3cnc(Cl)c(NS(=O)(=O)c4ccc(F)cc4)c3)cc2N1c1ccccc1`
7.72

====

experiment: Cmax in Sprague-Dawley rat at 10 mg/kg, po measured upto 24 hrs by LC-MS/MS analysis; format: ADME, organism-based; set-up: dose 10 mg/kg, route oral; details: in vivo
QUANTITY: Cmax

Value lookup for Cmax; key = `COc1ccc(N2C(=O)COc3ccc(-c4cnc(OC)c(NS(=O)(=O)c5ccc(F)cc5)c4)cc32)cc1`
887 ng/mL

====

target: Phosphatidylinositol 4,5-bisphosphate 3-kinase catalytic subunit alpha isoform (Homo sapiens, UniProt P42336); assay: Inhibition of recombinant human full length N-terminal GST-tagged PI3Kalpha (1 to 1068 residues)/PIK3R1 (1 to 724 residues) expressed in baculovirus expression system using PIP2 as substrate incubated for 1 hr by ADP-Glo assay
Sequence (P42336 whole entry, looked up, the tested form may be a part, canonical isoform): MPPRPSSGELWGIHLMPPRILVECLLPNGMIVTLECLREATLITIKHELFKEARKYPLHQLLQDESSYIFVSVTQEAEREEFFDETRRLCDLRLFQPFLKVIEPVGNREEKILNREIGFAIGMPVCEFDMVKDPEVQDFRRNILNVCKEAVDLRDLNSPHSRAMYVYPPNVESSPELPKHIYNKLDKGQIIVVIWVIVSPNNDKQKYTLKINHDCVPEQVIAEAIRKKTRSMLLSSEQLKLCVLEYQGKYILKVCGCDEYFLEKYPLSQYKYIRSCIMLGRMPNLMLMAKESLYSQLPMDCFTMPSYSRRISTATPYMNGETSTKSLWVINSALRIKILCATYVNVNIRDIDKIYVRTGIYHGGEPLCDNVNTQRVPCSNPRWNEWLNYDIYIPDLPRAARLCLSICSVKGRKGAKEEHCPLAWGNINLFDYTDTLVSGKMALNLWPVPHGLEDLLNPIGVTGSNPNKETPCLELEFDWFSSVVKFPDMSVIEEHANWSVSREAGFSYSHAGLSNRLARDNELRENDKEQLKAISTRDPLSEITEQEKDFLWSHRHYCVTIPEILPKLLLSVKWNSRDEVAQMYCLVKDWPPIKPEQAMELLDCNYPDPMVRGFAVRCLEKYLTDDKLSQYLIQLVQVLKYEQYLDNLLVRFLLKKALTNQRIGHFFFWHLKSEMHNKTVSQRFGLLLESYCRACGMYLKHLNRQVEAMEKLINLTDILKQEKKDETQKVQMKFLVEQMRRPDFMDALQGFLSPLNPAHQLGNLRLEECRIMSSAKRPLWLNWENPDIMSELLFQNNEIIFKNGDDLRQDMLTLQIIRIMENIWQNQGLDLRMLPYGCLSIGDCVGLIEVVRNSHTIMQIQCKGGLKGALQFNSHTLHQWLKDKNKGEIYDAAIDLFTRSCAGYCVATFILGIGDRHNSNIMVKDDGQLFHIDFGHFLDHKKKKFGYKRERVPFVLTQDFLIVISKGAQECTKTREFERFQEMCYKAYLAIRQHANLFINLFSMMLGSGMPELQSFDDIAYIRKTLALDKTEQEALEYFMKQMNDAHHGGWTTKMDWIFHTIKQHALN
Reported IC50 values for the following compounds.
Quick note: give the figure in nM, leave out the unit.

# count of solved cases: 3
Value lookup for IC50; key = `COc1ncc(-c2ccc3c(c2)N(C(C)C)C(=O)CO3)cc1NS(=O)(=O)c1ccc(F)cc1`
45.3

Value lookup for IC50; key = `COc1ncc(-c2ccc3c(c2)NC(=O)CO3)cc1NS(=O)(=O)c1ccc(F)cc1`
500

Value lookup for IC50; key = `Cc1ccc(N2C(=O)COc3ccc(-c4cnc(Cl)c(NS(=O)(=O)c5ccc(F)cc5)c4)cc32)cc1`
4.1

Further cases:
Value lookup for IC50; key = `COc1ncc(-c2ccc3c(c2)N(c2ccc(Cl)cc2)C(=O)CO3)cc1NS(=O)(=O)c1ccc(F)cc1`
22

====

target: Phosphatidylinositol 4,5-bisphosphate 3-kinase catalytic subunit alpha isoform (Homo sapiens); experiment: Inhibition of recombinant human full length N-terminal GST-tagged PI3Kalpha (1 to 1068 residues)/PIK3R1 (1 to 724 residues) expressed in baculovirus expression system using PIP2 as substrate incubated for 1 hr by ADP-Glo assay
QUANTITY: IC50

# count of solved cases: 6
Value lookup for IC50; key = `CC(C)N1C(=O)COc2ccc(-c3cnc4ccccc4c3)cc21`
> 1000 nM

Value lookup for IC50; key = `O=C1COc2ccc(-c3ccc(O)cc3)cc2N1C1CC1`
> 1000 nM

Value lookup for IC50; key = `O=C1COc2ccc(-c3ccc(O)cc3)cc2N1c1ccc(F)cc1`
> 1000 nM

Value lookup for IC50; key = `O=C1COc2ccc(-c3cnc(Cl)c(NS(=O)(=O)c4ccc(F)cc4)c3)cc2N1c1ccc(F)cc1`
5.1 nM

Value lookup for IC50; key = `O=C1COc2ccc(-c3ccc(O)cc3)cc2N1`
> 1000 nM

Value lookup for IC50; key = `O=C1COc2ccc(-c3cnc(Cl)c(NS(=O)(=O)c4ccc(F)cc4)c3)cc2N1`
115 nM

Now, please, on to the next compound.
Value lookup for IC50; key = `O=C1COc2ccc(-c3cnc4ccccc4c3)cc2N1c1ccc(Cl)cc1`
> 1000 nM

From: ChEMBL document CHEMBL4364276
